# measured.on: human recombinant HDAC6 (Homo sapiens, UniProt Q9UBN7)
# Construct: purchased Calibiochem Co. (so in the source) 382180
# Sequence (Q9UBN7 whole entry): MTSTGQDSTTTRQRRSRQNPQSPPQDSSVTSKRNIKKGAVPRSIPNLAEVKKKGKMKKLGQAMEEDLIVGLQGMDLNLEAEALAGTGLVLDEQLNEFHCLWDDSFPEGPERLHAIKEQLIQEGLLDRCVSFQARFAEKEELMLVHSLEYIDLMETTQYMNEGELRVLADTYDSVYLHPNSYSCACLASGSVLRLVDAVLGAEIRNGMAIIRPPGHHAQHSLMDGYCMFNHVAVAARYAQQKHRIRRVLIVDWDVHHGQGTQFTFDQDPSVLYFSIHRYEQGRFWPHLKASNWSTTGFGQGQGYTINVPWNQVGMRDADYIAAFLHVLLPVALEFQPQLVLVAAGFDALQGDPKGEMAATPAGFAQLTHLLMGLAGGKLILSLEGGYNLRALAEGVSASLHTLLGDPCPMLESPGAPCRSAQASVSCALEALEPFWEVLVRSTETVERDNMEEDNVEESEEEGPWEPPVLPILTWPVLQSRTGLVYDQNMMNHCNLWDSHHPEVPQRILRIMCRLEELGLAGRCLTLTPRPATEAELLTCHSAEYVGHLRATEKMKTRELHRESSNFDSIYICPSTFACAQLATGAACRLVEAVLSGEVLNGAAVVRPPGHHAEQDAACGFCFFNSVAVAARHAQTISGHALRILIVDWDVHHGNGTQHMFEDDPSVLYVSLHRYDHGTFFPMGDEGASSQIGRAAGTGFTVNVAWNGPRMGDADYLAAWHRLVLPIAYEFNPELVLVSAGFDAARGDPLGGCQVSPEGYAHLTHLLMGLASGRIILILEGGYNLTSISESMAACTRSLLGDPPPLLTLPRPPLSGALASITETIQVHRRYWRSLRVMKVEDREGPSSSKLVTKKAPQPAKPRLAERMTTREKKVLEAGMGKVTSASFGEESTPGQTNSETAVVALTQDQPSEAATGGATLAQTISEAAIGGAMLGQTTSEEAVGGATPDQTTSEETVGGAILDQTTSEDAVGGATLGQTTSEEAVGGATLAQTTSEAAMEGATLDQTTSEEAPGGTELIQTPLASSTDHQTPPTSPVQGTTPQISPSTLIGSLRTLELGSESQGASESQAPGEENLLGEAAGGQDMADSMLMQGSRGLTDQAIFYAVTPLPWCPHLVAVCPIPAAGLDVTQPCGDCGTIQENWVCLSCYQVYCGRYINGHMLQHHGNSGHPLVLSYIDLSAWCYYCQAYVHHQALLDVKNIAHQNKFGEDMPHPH
# measurement.protocol: HDAC enzyme activity test, HDAC6
# Assay type: biochemical
# reported.conditions: Table 12; read-out: Inhibition ability (IC50) HDAC6
measured.endpoint: IC50 (nM)

>  <molecule>
CN(CCO)CCN1CCc2c(c3cc(F)ccc3n2Cc2ccc(C(=O)NO)cc2)C1=O

>  <measured.on>
human recombinant HDAC6 (Homo sapiens, UniProt Q9UBN7)

>  <measured.endpoint>
IC50

>  <quantitative.result>
12.8

$$$$
>  <molecule>
O=C(CCCCCn1c2c(c3cc(F)ccc31)C(=O)C(CN1CCN(c3ccc(F)cc3)CC1)CC2)NO (stereo not shown)

>  <measured.on>
human recombinant HDAC6 (Homo sapiens, UniProt Q9UBN7)

>  <measured.endpoint>
IC50

>  <quantitative.result>
182

$$$$
>  <molecule>
CC1(C)CC(=O)c2c(n(CCCCCC(=O)NO)c3cc(Br)ccc23)C1

>  <measured.on>
human recombinant HDAC6 (Homo sapiens, UniProt Q9UBN7)

>  <measured.endpoint>
IC50

>  <quantitative.result>
1.95

$$$$
>  <molecule>
CCCCN1CCN(CC2CCc3c(c4cc(F)ccc4n3CCCCCC(=O)NO)C2=O)CC1 (stereo not shown)

>  <measured.on>
human recombinant HDAC6 (Homo sapiens, UniProt Q9UBN7)

>  <measured.endpoint>
IC50

>  <quantitative.result>
97.6

$$$$
>  <molecule>
CC1(C)CC(=O)c2c(n(Cc3ccc(C(=O)NO)cc3)c3ccc(F)c(F)c23)C1

>  <measured.on>
human recombinant HDAC6 (Homo sapiens, UniProt Q9UBN7)

>  <measured.endpoint>
IC50

>  <quantitative.result>
75.1

$$$$
>  <molecule>
CC1(C)CC(=O)c2c(n(CCCCCC(=O)NO)c3c(Cl)cc(Cl)cc23)C1

>  <measured.on>
human recombinant HDAC6 (Homo sapiens, UniProt Q9UBN7)

>  <measured.endpoint>
IC50

>  <quantitative.result>
421

$$$$
>  <molecule>
O=C(NO)c1ccc(Cn2c3c(c4ccccc42)C(=O)C(CN2CC(F)(F)C2)CC3)cc1 (stereo not shown)

>  <measured.on>
human recombinant HDAC6 (Homo sapiens, UniProt Q9UBN7)

>  <measured.endpoint>
IC50

>  <quantitative.result>
8.51

$$$$
>  <molecule>
O=C(NO)c1ccc(Cn2c3c(c4cc(F)ccc42)C(=O)C(CN2CC[C@@H](F)C2)CC3)cc1 (stereo partly shown)

>  <measured.on>
human recombinant HDAC6 (Homo sapiens, UniProt Q9UBN7)

>  <measured.endpoint>
IC50

>  <quantitative.result>
8.29

$$$$
>  <molecule>
CC1(C)Cc2c(c3ccccc3n2Cc2ccc(C(=O)NO)cc2)C(=O)C1CN1CCOCC1 (stereo not shown)

>  <measured.on>
human recombinant HDAC6 (Homo sapiens, UniProt Q9UBN7)

>  <measured.endpoint>
IC50

>  <quantitative.result>
41

$$$$
>  <molecule>
CC1(C)CC(=O)c2c(n(CCCCCC(=O)NO)c3cc(F)c(F)cc23)C1

>  <measured.on>
human recombinant HDAC6 (Homo sapiens, UniProt Q9UBN7)

>  <measured.endpoint>
IC50

>  <quantitative.result>
215

$$$$
>  <molecule>
O=C(NO)c1ccc(Cn2c3c(c4cc(F)ccc42)C(=O)N(CCN2CCOCC2)CC3)cc1

>  <measured.on>
human recombinant HDAC6 (Homo sapiens, UniProt Q9UBN7)

>  <measured.endpoint>
IC50

>  <quantitative.result>
1.02

$$$$
>  <molecule>
CC(C)(O)CN1CCN(CC2CCc3c(c4cc(F)ccc4n3Cc3ccc(C(=O)NO)cc3)C2=O)CC1 (stereo not shown)

>  <measured.on>
human recombinant HDAC6 (Homo sapiens, UniProt Q9UBN7)

>  <measured.endpoint>
IC50

>  <quantitative.result>
7.4

$$$$
>  <molecule>
Cc1c2c(n(Cc3ccc(C(=O)NO)cc3)c1C)CCC(CN1CCOCC1)C2=O (stereo not shown)

>  <measured.on>
human recombinant HDAC6 (Homo sapiens, UniProt Q9UBN7)

>  <measured.endpoint>
IC50

>  <quantitative.result>
13.5

$$$$
>  <molecule>
O=C(NO)c1ccc(Cn2c3c(c4cc(F)ccc42)C(=O)N(CCN2CCC[C@H]2CO)CC3)cc1

>  <measured.on>
human recombinant HDAC6 (Homo sapiens, UniProt Q9UBN7)

>  <measured.endpoint>
IC50

>  <quantitative.result>
2.19

$$$$
>  <molecule>
CC(C)(C)OC(=O)N1CCN(CC2CCc3c(c4cc(F)ccc4n3Cc3ccc(C(=O)NO)cc3)C2=O)CC1 (stereo not shown)

>  <measured.on>
human recombinant HDAC6 (Homo sapiens, UniProt Q9UBN7)

>  <measured.endpoint>
IC50

>  <quantitative.result>
27.1

$$$$
>  <molecule>
CC(C)N1CCN(CC2CCc3c(c4ccccc4n3Cc3ccc(C(=O)NO)cc3)C2=O)CC1 (stereo not shown)

>  <measured.on>
human recombinant HDAC6 (Homo sapiens, UniProt Q9UBN7)

>  <measured.endpoint>
IC50

>  <quantitative.result>
8.5

$$$$
